test system: CCRIS mutagenicity, Ames/micronucleus/aberration tests; assay: CCRIS mutagenicity studies; settings: Test System: AMES SALMONELLA TYPHIMURIUM; Strain/Indicator: TA100; Metabolic Activation: HAMSTER, LIVER, S-9, 3-METHYLCHOLANTHRENE; Method: PREINCUBATION
Active and inactive are the calls of the source. How the calls were made is not given here.
Classes used: Y = active, N = inactive

compound="CN(CC(O)CO)N=O (centres undefined)" label=Y
compound="CC(O)CN(CC(O)CO)N=O (centres undefined)" label=N
compound="CC(=O)OC(C)CN(CC(C)OC(C)=O)N=O (centres undefined)" label=Y
compound="CC(=O)CN(CC(C)O)N=O (centres undefined)" label=Y

Just for reference, PubChem BioAssay AID1259407 is where these values come from.
